Recorded OD450 for the following binders
target: T1, human MSLN-R1-his protein (human, UniProt Q13421 296-390)
T1 construct: also called hMSLN-R1-his; human MSLN-R1 protein; not shown: His tag
T1 chain: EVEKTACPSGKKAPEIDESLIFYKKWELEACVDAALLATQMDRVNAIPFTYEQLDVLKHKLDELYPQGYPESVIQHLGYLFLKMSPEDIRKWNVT
experiment: ELISA, coated antigen; antibody 0.1 nM
Number, no unit, nothing else.

Past entries and their recorded results:
Ask: Please supply the value of reported OD450 for the item S009-F1.2.12 human-murine chimeric antibody (antibody, human IgG1, kappa, V domains shown, Chimeric IgG1/kappa) VH: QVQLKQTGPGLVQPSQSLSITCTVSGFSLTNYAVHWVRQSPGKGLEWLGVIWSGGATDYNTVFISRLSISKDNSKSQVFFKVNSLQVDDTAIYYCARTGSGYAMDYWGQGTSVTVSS VL: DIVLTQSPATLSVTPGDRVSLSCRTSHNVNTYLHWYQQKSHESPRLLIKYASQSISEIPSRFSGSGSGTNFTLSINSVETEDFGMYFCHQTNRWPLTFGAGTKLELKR
Reply: 0.05

Ask: Please supply the value of reported OD450 for the item S009-F1.57.1 human-murine chimeric antibody (antibody, human IgG1, kappa, V domains shown, Chimeric IgG1/kappa) VH: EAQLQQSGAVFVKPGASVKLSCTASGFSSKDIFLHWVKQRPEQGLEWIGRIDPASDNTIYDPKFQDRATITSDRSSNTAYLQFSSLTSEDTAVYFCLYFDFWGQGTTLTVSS VL: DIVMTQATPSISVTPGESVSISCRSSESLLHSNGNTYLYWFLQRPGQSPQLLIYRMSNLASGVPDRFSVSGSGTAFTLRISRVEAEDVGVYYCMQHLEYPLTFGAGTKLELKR
Reply: 0.03

Now for the binder whose OD450 we want.
Ask: Please supply the value of reported OD450 for the item S009-F1.59.1 human-murine chimeric antibody (antibody, human IgG1, kappa, V domains shown, Chimeric IgG1/kappa) VH: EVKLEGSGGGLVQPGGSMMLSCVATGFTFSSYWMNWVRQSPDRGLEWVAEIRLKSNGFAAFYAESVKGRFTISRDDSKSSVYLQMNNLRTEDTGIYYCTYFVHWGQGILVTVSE VL: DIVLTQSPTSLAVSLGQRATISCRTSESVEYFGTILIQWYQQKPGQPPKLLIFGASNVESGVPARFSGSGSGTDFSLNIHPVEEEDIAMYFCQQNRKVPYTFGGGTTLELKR
Reply: 0.03
